In this section we review reported Bone/Muscle values for a set of molecules.
Assay: biolocalization of the radionuclide in rats (tissue distribution after tail vein injection)
Assay type: in vivo, male Sprague Dawley rats
Settings: Sm-153; rats; 2 hours; ratio of percent dose per gram; average of 5 rats
API doc: respond with a numeric literal and nothing else, no unit.

O=P(O)(O)CN(CCO)CCN(CP(=O)(O)O)CP(=O)(O)O.[153Sm+3] [Example 6]: 1300
O=P([O-])(O)CN(CCN(CP(=O)([O-])O)CP(=O)(O)O)CP(=O)([O-])O.[153Sm+3] [Example 2]: 1500
O=P(O)(O)CN(CCN(CP(=O)(O)O)CP(=O)(O)O)CCN(CP(=O)(O)O)CP(=O)(O)O.[153Sm+3] [Example 4]: 220

Prompt line: Answer with the recorded Bone/Muscle of O=P(O)(O)CN(CCN(CCN(CP(=O)(O)O)CP(=O)(O)O)CCN(CP(=O)(O)O)CP(=O)(O)O)CP(=O)(O)O.[153Sm+3] [Example 8] only.
Response line: 410
